# System: Aspergillus fumigatus
# run-description: Antifungal activity against Aspergillus fumigatus ATCC 204305 after 24 to 72 hrs by broth microdilution method
# Type: functional
Record form. Attribute: MIC. Fill in for each entry.
Field: numeric (µg/mL). Do not append units.

Short answer on Aspergillus fumigatus for [Cl-].[Cl-].c1ccc(CCCc2cc[n+](CCCCCCCCCCCC[n+]3ccc(CCCc4ccccc4)cc3)cc2)cc1 , MIC: 27.9

Log: Aspergillus fumigatus, molecule CCCCCCc1cc[n+](CCCCCCCCCCCC[n+]2ccc(CCCCCC)cc2)cc1.[Cl-].[Cl-] , MIC = 12.7

Entry CCCCC(CCCC)c1cc[n+](CCCCCCCCCCCC[n+]2ccc(C(CCCC)CCCC)c(C)c2)cc1C.[Cl-].[Cl-] under Aspergillus fumigatus had MIC of 14.9

Form field MIC for item CCCCCc1cc[n+](CCCCCCCCCCCC[n+]2ccc(CCCCC)cc2)cc1.[Cl-].[Cl-] on Aspergillus fumigatus: 47.3

So the reported MIC for CCCCCc1cc[n+](CCCCCCCCCCCC[n+]2ccc(CCCCC)c(CCCCC)c2)cc1CCCCC.[Cl-].[Cl-] , on Aspergillus fumigatus, turned out to be 7.5

The value of MIC recorded for CCCCCc1cc[n+](CCCCCCCCCCCC[n+]2ccc(CCCCC)c(C)c2)cc1C.[Cl-].[Cl-] when tested on Aspergillus fumigatus reads 25.3
